assay: The drug is tested on Bacteroides uniformis strain: ATCC8492 for biotransformation. The drug concentrations were measured before and after a 12-h incubation by liquid-chromatography-coupled mass spectrometry (LC–MS); settings: 2 µM
REPORTED ENDPOINT: Bacterial Biotransformation

// known answers, use as guide
>  <COMPOUND>
O=C1[C@H](CC[C@H](O)c2ccc(F)cc2)[C@@H](c2ccc(O)cc2)N1c1ccc(F)cc1

>  <DATA VALUE>
Compound metabolized

$$$$
>  <COMPOUND>
CCN(CC)CCNC(=O)c1cc(Cl)c(N)cc1OC [METOCLOPRAMIDE]

>  <DATA VALUE>
Compound NOT metabolized

$$$$
>  <COMPOUND>
CN1CCN(C2=Nc3ccccc3Oc3ccc(Cl)cc32)CC1.O=C(O)CCC(=O)O [LOXAPINE SUCCINATE]

>  <DATA VALUE>
Compound NOT metabolized

$$$$
>  <COMPOUND>
COc1ccc2cc([C@H](C)C(=O)O)ccc2c1

>  <DATA VALUE>
Compound NOT metabolized

$$$$
>  <COMPOUND>
CCCCCCOC(=O)/N=C(/N)c1ccc(NCc2nc3cc(C(=O)N(CCC(=O)OCC)c4ccccn4)ccc3n2C)cc1.CS(=O)(=O)O [DABIGATRAN ETEXILATE MESYLATE]

>  <DATA VALUE>
Compound NOT metabolized

$$$$
>  <COMPOUND>
COc1ccnc(C[S+]([O-])c2nc3ccc(OC(F)F)cc3[nH]2)c1OC (configuration not stated)

>  <DATA VALUE>
Compound metabolized

$$$$

Item under review: CN(C)CCOC(c1ccc(Cl)cc1)c1ccccn1.O=C(O)/C=C\C(=O)O (configuration not stated) [CARBINOXAMINE MALEATE] . Reported Bacterial Biotransformation? Compound NOT metabolized

Same for `CNCC[C@H](Oc1cccc2ccccc12)c1cccs1` Compound metabolized

Same for `CCOC(=O)[C@H](CCc1ccccc1)N[C@@H](C)C(=O)N1[C@H](C(=O)O)C[C@@H]2CCC[C@@H]21` Compound metabolized

---

settings: bacteroides fragilis, 12 h, 2 µM
Description: The drug is tested on Bacteroides fragilis strain: NCTC 9343 for biotransformation. The drug concentrations were measured before and after a 12-h incubation by liquid-chromatography-coupled mass spectrometry (LC–MS)
REPORTED ENDPOINT: Bacterial Biotransformation

// known answers, use as guide
>  <MOLECULE>
COc1ccccc1OCC(O)COC(N)=O (stereo not drawn) [METHOCARBAMOL]

>  <DATA VALUE>
Compound NOT metabolized

$$$$
>  <MOLECULE>
O=c1[nH]c2ccccc2n1CCCN1CCC(n2c(=O)[nH]c3cc(Cl)ccc32)CC1 [DOMPERIDONE]

>  <DATA VALUE>
Compound NOT metabolized

$$$$
>  <MOLECULE>
C[C@@H](CO)NC(=O)[C@@H]1C=C2c3cccc4[nH]cc(c34)C[C@H]2N(C)C1.O=C(O)/C=C\C(=O)O [ERGONOVINE MALEATE]

>  <DATA VALUE>
Compound metabolized

$$$$
>  <MOLECULE>
N=C(N)NC(=O)Cc1c(Cl)cccc1Cl [GUANFACINE]

>  <DATA VALUE>
Compound NOT metabolized

$$$$
>  <MOLECULE>
CCCN(CCC)CCc1cccc2c1CC(=O)N2 [ROPINIROLE]

>  <DATA VALUE>
Compound NOT metabolized

$$$$
>  <MOLECULE>
CC[C@@H](CO)NC(=O)[C@@H]1C=C2c3cccc4c3c(cn4C)C[C@H]2N(C)C1.O=C(O)/C=C\C(=O)O [METHYSERGIDE MALEATE]

>  <DATA VALUE>
Compound metabolized

$$$$
>  <MOLECULE>
CCN(CC)CCOC(=O)C(Cc1cccc2ccccc12)CC1CCCO1.O=C(O)C(=O)O (stereo not drawn) [NAFRONYL OXALATE]

>  <DATA VALUE>
Compound metabolized

$$$$
>  <MOLECULE>
O=C(O)CCc1nc(-c2ccccc2)c(-c2ccccc2)o1 [OXAPROZIN]

>  <DATA VALUE>
Compound metabolized

$$$$
>  <MOLECULE>
CNC(=C[N+](=O)[O-])NCCSCc1csc(CN(C)C)n1 [NIZATIDINE]

>  <DATA VALUE>
Compound metabolized

$$$$
>  <MOLECULE>
Br.COc1ccc2c(c1)[C@]13CCCC[C@@H]1[C@H](C2)N(C)CC3.O [DEXTROMETHORPHAN HYDROBROMIDE]

>  <DATA VALUE>
Compound NOT metabolized

$$$$

Item under review: CN1C(=O)CC(C)(c2ccccc2)C1=O (stereo not drawn) [METHSUXIMIDE] . Reported Bacterial Biotransformation? Compound NOT metabolized

Same for COC1=CC(=O)C[C@@H](C)[C@]12Oc1c(Cl)c(OC)cc(OC)c1C2=O [GRISEOFULVIN] Compound metabolized

Same for COc1cc2nc(N3CCN(C(=O)C4CCCO4)CC3)nc(N)c2cc1OC (stereo not drawn) [TERAZOSIN] Compound NOT metabolized

Same for Cc1ccc(-c2nc3ccc(C)cn3c2CC(=O)N(C)C)cc1 [ZOLPIDEM] Compound NOT metabolized

Same for C#C[C@]1(O)CC[C@H]2[C@@H]3CCC4=CC(=O)CC[C@@H]4[C@H]3CC[C@@]21CC [LEVONORGESTREL] Compound metabolized

Same for CC(=O)Oc1ccc(C(c2ccc(OC(C)=O)cc2)c2ccccn2)cc1 [BISACODYL] Compound metabolized

Same for C[N+]12CCC(CC1)C(OC(=O)C(O)(c1ccccc1)c1ccccc1)C2.[Br-] (stereo not drawn) [CLIDINIUM BROMIDE] Compound NOT metabolized

Same for CCS(=O)(=O)CCn1c([N+](=O)[O-])cnc1C [TINIDAZOLE] Compound metabolized
